experiment: in vitro; conditions: human, liver microsomes
Description: Clearance in human liver microsomes at 1 uM in presence of NADPH by LC-MS/MS analysis relative to hepatic blood flow
EXPERIMENTAL ENDPOINT: hepatic extraction ratio at 1 µM
Answer with a number only.

See these solved cases before continuing.
N#Cc1cc(COC(=O)N2C[C@@H]3[C@@H](CNC(=O)N4CCc5[nH]nnc5C4)[C@@H]3C2)cc(C(=O)OC(F)(F)F)c1 :: 0.44
O=C(NC[C@@H]1[C@H]2CN(C(=O)NCc3cc(Cl)cc(Cl)c3)C[C@@H]12)c1ccc2[nH]c(=O)oc2c1 :: 0.36
Cc1ccc(COC(=O)N2C[C@@H]3[C@@H](CNC(=O)c4ccc5[nH]c(=O)oc5c4)[C@@H]3C2)nc1 :: 0.25
O=C(NC[C@@H]1[C@H]2CN(C(=O)OCc3cc(Cl)cc(Cl)c3)C[C@@H]12)c1ccc2[nH]c(=O)oc2c1 :: 0.41
O=C(NC[C@@H]1[C@H]2CN(C(=O)CCc3cc(Cl)cc(Cl)c3)C[C@@H]12)c1ccc2[nH]c(=O)oc2c1 :: 0.94

According to the records, this compound `N#Cc1cc(COC(=O)N2C[C@@H]3[C@@H](CNC(=O)c4ccc5[nH]c(=O)oc5c4)[C@@H]3C2)cc(OC(F)(F)F)c1` displays hepatic extraction ratio at 1 µM of 0.48

According to the records, this compound `N#Cc1cc(COC(=O)N2C[C@@H]3[C@@H](CNC(=O)c4ccc5[nH]nnc5c4)[C@@H]3C2)cc(C(=O)OC(F)(F)F)c1` displays hepatic extraction ratio at 1 µM of 0.29

According to the records, this compound `O=C(NC[C@@H]1[C@H]2CN(C(=O)/C=C/c3cc(Cl)cc(Cl)c3)C[C@@H]12)c1ccc2[nH]c(=O)oc2c1` displays hepatic extraction ratio at 1 µM of 0.25
